- System: hTERT-HMEC
- procedure details: percentage of EdU-negative (G0-arrested) nuclei per well, 72 h; higher = more G0 arrest;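 note: secreted proteins added to cultured cells, EdU pulse at the end, nuclei found by Hoechst imaging, EdU status from nuclear versus surrounding ring intensity ratio, PBS as neutral control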
- condition info: protein concentration 0.225 µM; reference: sequence is the full UniProt precursor, the tested protein was the secreted form or ectodomain
observed property: percentage of EdU-negative (%)
Quick note: give the figure in %, leave out the unit.

In the examples that follow, each entry is paired with its recorded percentage of EdU-negative.
MAQLCGLRRSRAFLALLGSLLLSGVLAADRERSIHDFCLVSKVVGRCRASMPRWWYNVTDGSCQLFVYGGCDGNSNNYLTKEECLKKCATVTENATGDLATSRNAADSSVPSAPRRQDSEDHSSDMFNYEEYCTANAVTGPCRASFPRWYFDVERNSCNNFIYGGCRGNKNSYRSEEACMLRCFRQQENPPLPLGSKVVVLAGLFVMVLILFLGASMVYLIRVARRNQERALRTVWSSGDDKEQLVKNTYVL; 5.37
MLDWRLASAHFILAVTLTLWSSGKVLSVDVTTTEAFDSGVIDVQSTPTVREEKSATDLTAKLLLLDELVSLENDVIETKKKRSFSGFGSPLDRLSAGSVDHKGKQRKVVDHPKRRFGIPMDRIGRNRLSNSRG; 5.5

Here's the next entry for you.
Provide value of percentage of EdU-negative for this record tested with hTERT-HMEC: MVGKMWPVLWTLCAVRVTVDAISVETPQDVLRASQGKSVTLPCTYHTSTSSREGLIQWDKLLLTHTERVVIWPFSNKNYIHGELYKNRVSISNNAEQSDASITIDQLTMADNGTYECSVSLMSDLEGNTKSRVRLLVLVPPSKPECGIEGETIIGNNIQLTCQSKEGSPTPQYSWKRYNILNQEQPLAQPASGQPVSLKNISTDTSGYYICTSSNEEGTQFCNITVAVRSPSMNVALYVGIAVGVVAALIIIGIIIYCCCCRGKDDNTEDKEDARPNREAYEEPPEQLRELSREREEEDDYRQEEQRSTGRESPDHLDQ
5.86

* * *

Examples of sequences with documented percentage of EdU-negative follow.
- Tested on: MCF7
- procedure details: percentage of EdU-negative (G0-arrested) nuclei per well, 72 h; higher = more G0 arrest
- condition info: protein concentration 0.0225 µM; reference: sequence is the full UniProt precursor, the tested protein was the secreted form or ectodomain

In the examples that follow, each entry is paired with its recorded percentage of EdU-negative.
MRRASRDYTKYLRGSEEMGGGPGAPHEGPLHAPPPPAPHQPPAASRSMFVALLGLGLGQVVCSVALFFYFRAQMDPNRISEDGTHCIYRILRLHENADFQDTTLESQDTKLIPDSCRRIKQAFQGAVQKELQHIVGSQHIRAEKAMVDGSWLDLAKRSKLEAQPFAHLTINATDIPSGSHKVSLSSWYHDRGWAKISNMTFSNGKLIVNQDGFYYLYANICFRHHETSGDLATEYLQLMVYVTKTSIKIPSSHTLMKGGSTKYWSGNSEFHFYSINVGGFFKLRSGEEISIEVSNPSLLDPDQDATYFGAFKVRDID; 28.6%
MLWLFQSLLFVFCFGPGNVVSQSSLTPLMVNGILGESVTLPLEFPAGEKVNFITWLFNETSLAFIVPHETKSPEIHVTNPKQGKRLNFTQSYSLQLSNLKMEDTGSYRAQISTKTSAKLSSYTLRILRQLRNIQVTNHSQLFQNMTCELHLTCSVEDADDNVSFRWEALGNTLSSQPNLTVSWDPRISSEQDYTCIAENAVSNLSFSVSAQKLCEDVKIQYTDTKMILFMVSGICIVFGFIILLLLVLRKRRDSLSLSTQRTQGPAESARNLEYVSVSPTNNTVYASVTHSNRETEIWTPRENDTITIYSTINHSKESKPTFSRATALDNVV [Q96DU3]; 24.7%

Here's the next entry for you.
Entry under review: MGRPRPRAAKTWMFLLLLGGAWAGHSRAQEDKVLGGHECQPHSQPWQAALFQGQQLLCGGVLVGGNWVLTAAHCKKPKYTVRLGDHSLQNKDGPEQEIPVVQSIPHPCYNSSDVEDHNHDLMLLQLRDQASLGSKVKPISLADHCTQPGQKCTVSGWGTVTSPRENFPDTLNCAEVKIFPQKKCEDAYPGQITDGMVCAGSSKGADTCQGDSGGPLVCDGALQGITSWGSDPCGRSDKPGVYTNICRYLDWIKKIIGSKG . Reported percentage of EdU-negative?
26.4%

* * *

Examples of sequences with documented percentage of EdU-negative follow.
- System: MCF7
- procedure details: percentage of EdU-negative (G0-arrested) nuclei per well, 72 h; higher = more G0 arrest
- condition info: protein concentration 0.225 µM; reference: sequence is the full UniProt precursor, the tested protein was the secreted form or ectodomain
Quick note: give the figure in %, leave out the unit.

MTPSRLPWLLSWVSATAWRAARSPLLCHSLRKTSSSQGGKSELVKQSLKKPKLPEGRFDAPEDSHLEKEPLEKFPDDVNPVTKEKGGPRGPEPTRYGDWERKGRCIDF [Q5VUM1]; 25.4
MRLGSPGLLFLLFSSLRADTQEKEVRAMVGSDVELSCACPEGSRFDLNDVYVYWQTSESKTVVTYHIPQNSSLENVDSRYRNRALMSPAGMLRGDFSLRLFNVTPQDEQKFHCLVLSQSLGFQEVLSVEVTLHVAANFSVPVVSAPHSPSQDELTFTCTSINGYPRPNVYWINKTDNSLLDQALQNDTVFLNMRGLYDVVSVLRIARTPSVNIGCCIENVLLQQNLTVGSQTGNDIGERDKITENPVSTGEKNAATWSILAVLCLLVVVAVAIGWVCRDRCLQHSYAGAWAVSPETELTGHV; 25.8
MWWRVLSLLAWFPLQEASLTNHTETITVEEGQTLTLKCVTSLRKNSSLQWLTPSGFTIFLNEYPALKNSKYQLLHHSANQLSITVPNVTLQDEGVYKCLHYSDSVSTKEVKVIVLATPFKPILEASVIRKQNGEEHVVLMCSTMRSKPPPQITWLLGNSMEVSGGTLHEFETDGKKCNTTSTLIIHTYGKNSTVDCIIRHRGLQGRKLVAPFRFEDLVTDEETASDALERNSLSSQDPQQPTSTVSVTEDSSTSEIDKEEKEQTTQDPDLTTEANPQYLGLARKKSGILLLTLVSFLIFILFIIVQLFIMKLRKAHVIWKKENEVSEHTLESYRSRSNNEETSSEEKNGQSSHPMRCMNYITKLYSEAKTKRKENVQHSKLEEKHIQVPESIV; 25.7
MRPLAGGLLKVVFVVFASLCAWYSGYLLAELIPDAPLSSAAYSIRSIGERPVLKAPVPKRQKCDHWTPCPSDTYAYRLLSGGGRSKYAKICFEDNLLMGEQLGNVARGINIAIVNYVTGNVTATRCFDMYEGDNSGPMTKFIQSAAPKSLLFMVTYDDGSTRLNNDAKNAIEALGSKEIRNMKFRSSWVFIAAKGLELPSEIQREKINHSDAKNNRYSGWPAEIQIEGCIPKERS; 24.7

Here's the next entry for you.
Entry under review: MKPALLEVMRMNRICRMVLATCLGSFILVIFYFQSMLHPVMRRNPFGVDICCRKGSRSPLQELYNPIQLELSNTAVLHQMRRDQVTDTCRANSATSRKRRVLTPNDLKHLVVDEDHELIYCYVPKVACTNWKRLMMVLTGRGKYSDPMEIPANEAHVSANLKTLNQYSIPEINHRLKSYMKFLFVREPFERLVSAYRNKFTQKYNISFHKRYGTKIIKRQRKNATQEALRKGDDVKFEEFVAYLIDPHTQREEPFNEHWQTVYSLCHPCHIHYDLVGKYETLEEDSNYVLQLAGVGSYLKFPTYAKSTRTTDEMTTEFFQNISSEHQTQLYEVYKLDFLMFNYSVPSYLKLE [Q9NPF2] . Reported percentage of EdU-negative?
24.6

* * *

- Test system: MCF7
- procedure details: percentage of EdU-negative (G0-arrested) nuclei per well, 72 h; higher = more G0 arrest
- condition info: protein concentration 0.0225 µM; reference: sequence is the full UniProt precursor, the tested protein was the secreted form or ectodomain
Examples of sequences with documented percentage of EdU-negative follow.
Quick note: give the figure in %, leave out the unit.

In the examples that follow, each entry is paired with its recorded percentage of EdU-negative.
MSALWLLLGLLALMDLSESSNWGCYGNIQSLDTPGASCGIGRRHGLNYCGVRASERLAEIDMPYLLKYQPMMQTIGQKYCMDPAVIAGVLSRKSPGDKILVNMGDRTSMVQDPGSQAPTSWISESQVSQTTEVLTTRIKEIQRRFPTWTPDQYLRGGLCAYSGGAGYVRSSQDLSCDFCNDVLARAKYLKRHGF [Q8N1E2]; 25.6
MKRLVCVLLVCSSAVAQLHKDPTLDHHWHLWKKTYGKQYKEKNEEAVRRLIWEKNLKFVMLHNLEHSMGMHSYDLGMNHLGDMTSEEVMSLMSSLRVPSQWQRNITYKSNPNRILPDSVDWREKGCVTEVKYQGSCGACWAFSAVGALEAQLKLKTGKLVSLSAQNLVDCSTEKYGNKGCNGGFMTTAFQYIIDNKGIDSDASYPYKAMDQKCQYDSKYRAATCSKYTELPYGREDVLKEAVANKGPVSVGVDARHPSFFLYRSGVYYEPSCTQNVNHGVLVVGYGDLNGKEYWLVKNSWGHNFGEEGYIRMARNKGNHCGIASFPSYPEI; 25.8
MDSSREPTLGRLDAAGFWQVWQRFDADEKGYIEEKELDAFFLHMLMKLGTDDTVMKANLHKVKQQFMTTQDASKDGRIRMKELAGMFLSEDENFLLLFRRENPLDSSVEFMQIWRKYDADSSGFISAAELRNFLRDLFLHHKKAISEAKLEEYTGTMMKIFDRNKDGRLDLNDLARILALQENFLLQFKMDACSTEERKRDFEKIFAYYDVSKTGALEGPEVDGFVKDMMELVQPSISGVDLDKFREILLRHCDVNKDGKIQKSELALCLGLKINP; 40.5
MMLHSALGLCLLLVTVSSNLAIAIKKEKRPPQTLSRGWGDDITWVQTYEEGLFYAQKSKKPLMVIHHLEDCQYSQALKKVFAQNEEIQEMAQNKFIMLNLMHETTDKNLSPDGQYVPRIMFVDPSLTVRADIAGRYSNRLYTYEPRDLPLLIENMKKALRLIQSEL [Q8TD06]; 26.1
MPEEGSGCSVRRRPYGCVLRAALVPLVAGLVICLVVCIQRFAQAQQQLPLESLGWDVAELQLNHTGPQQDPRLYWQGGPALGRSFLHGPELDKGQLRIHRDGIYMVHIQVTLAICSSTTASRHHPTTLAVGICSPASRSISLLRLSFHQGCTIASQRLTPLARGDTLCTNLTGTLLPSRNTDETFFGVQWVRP; 26.5

Here's the next entry for you.
Entry under review: MLRLYVLVMGVSAFTLQPAAHTGAARSCRFRGRHYKREFRLEGEPVALRCPQVPYWLWASVSPRINLTWHKNDSARTVPGEEETRMWAQDGALWLLPALQEDSGTYVCTTRNASYCDKMSIELRVFENTDAFLPFISYPQILTLSTSGVLVCPDLSEFTRDKTDVKIQWYKDSLLLDKDNEKFLSVRGTTHLLVHDVALEDAGYYRCVLTFAHEGQQYNITRSIELRIKKKKEETIPVIISPLKTISASLGSRLTIPCKVFLGTGTPLTTMLWWTANDTHIESAYPGGRVTEGPRQEYSENNENYIEVPLIFDPVTREDLHMDFKCVVHNTLSFQTLRTTVKEASSTFSWGIVLAPLSLAFLVLGGIWMHRRCKHRTGKADGLTVLWPHHQDFQSYPK . Reported percentage of EdU-negative?
25.1
